pIC50: −log10 of the molar value.
The following are reported pIC50 results, target or system TNAP (Homo sapiens (Human)).

Compound: COc1ccc(Br)cc1S(=O)(=O)Nc1cncc(-c2ccc(Cl)cc2)c1 [Example III-20]
Tested target: TNAP (Homo sapiens (Human))
pIC50: 6.00 to 7.00
//
Compound: COc1ccc(OC)c(S(=O)(=O)Nc2cc(C(F)(F)F)n(C)n2)c1 [Example V-14]
Tested target: TNAP (Homo sapiens (Human))
pIC50: < 6.00
//
Compound: O=S(=O)(Nc1cncc(-c2ncccn2)c1)c1cc(Br)ccc1OC(F)(F)F [Example XI-24]
Tested target: TNAP (Homo sapiens (Human))
pIC50: 6.00 to 7.00
//
Compound: N#Cc1ccc(-c2cncc(NS(=O)(=O)c3cc(Br)ccc3OC(F)(F)F)c2)cc1 [Example XI-11]
Tested target: TNAP (Homo sapiens (Human))
pIC50: 6.00 to 7.00
//
Compound: CCOC(=O)c1cncc(NS(=O)(=O)c2cc(Br)ccc2OC)c1 [Example IV-2]
Tested target: TNAP (Homo sapiens (Human))
pIC50: > 7.00
//
Compound: COc1ccc(C(=O)N2CCOCC2)cc1S(=O)(=O)Nc1cnc2ccccc2c1 [Example II-23]
Tested target: TNAP (Homo sapiens (Human))
pIC50: 6.00 to 7.00
//
Compound: COc1ccc(Cl)cc1S(=O)(=O)Nc1cncc(C(=O)Oc2ccccc2)c1 [Example IV-10]
Tested target: TNAP (Homo sapiens (Human))
pIC50: > 7.00
//
Compound: CNC(=O)c1ccc2ncc(NS(=O)(=O)c3cc(Br)ccc3OC)cc2c1 [Example IX-7]
Tested target: TNAP (Homo sapiens (Human))
pIC50: > 7.00

====

# collection of IC50 values tested on TNAP (Homo sapiens (Human), UniProt P05186)
# Sequence (P05186 18-501): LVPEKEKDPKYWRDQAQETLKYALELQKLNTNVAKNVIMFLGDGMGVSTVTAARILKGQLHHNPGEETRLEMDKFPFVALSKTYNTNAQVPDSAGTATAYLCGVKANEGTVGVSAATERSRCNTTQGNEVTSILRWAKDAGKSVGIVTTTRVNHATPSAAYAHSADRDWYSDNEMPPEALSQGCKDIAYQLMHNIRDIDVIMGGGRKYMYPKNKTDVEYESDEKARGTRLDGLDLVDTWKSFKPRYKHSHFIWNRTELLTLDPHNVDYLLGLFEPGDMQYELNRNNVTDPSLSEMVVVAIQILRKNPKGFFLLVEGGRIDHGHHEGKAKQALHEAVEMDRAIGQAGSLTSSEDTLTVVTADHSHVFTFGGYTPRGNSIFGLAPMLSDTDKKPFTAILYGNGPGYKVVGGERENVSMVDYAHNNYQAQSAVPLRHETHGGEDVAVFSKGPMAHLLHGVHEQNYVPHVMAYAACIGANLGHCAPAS

Query smiles: CNC(=O)c1ccc(OC)c(S(=O)(=O)Nc2cnc3ccccc3c2)c1
IC50: < 100 nM
--
Query smiles: COc1ccc(OC)c(S(=O)(=O)Nc2ccc(N3CCCCC3)nc2)c1
IC50: > 1000 nM
--
Query smiles: COc1ccc(OC)c(S(=O)(=O)Nc2cncc(-c3ccccc3)c2)c1
IC50: < 100 nM
--
Query smiles: CCCNC(=O)c1ccc2ncc(NS(=O)(=O)c3cc(OC)ccc3OC)cc2c1
IC50: < 100 nM

====

- Tested target: UniProt P05186
- Test protocol: TNAP (PPi) inhibition assay, pyrophosphate as substrate
- Type: biochemical

Compound: COc1ccc(Br)cc1S(=O)(=O)Nc1cncc(-c2ccc(F)cc2)c1 [Example III-17]
IC50: < 0.1 µM

Compound: COc1ccc(Cl)cc1S(=O)(=O)Nc1cncc(C(=O)NCCN(C)C)c1 [Example IV-33]
IC50: 0.1 to 1 µM

Compound: Cn1cc(-c2cncc(NS(=O)(=O)c3cc(Br)ccc3OC(F)(F)F)c2)cn1 [Example XI-31]
IC50: < 0.1 µM

Compound: CCNC(=O)c1ccc(OC)c(S(=O)(=O)Nc2cccnc2)c1 [Example I-17]
IC50: > 1 µM

Compound: COc1ccc(Br)cc1S(=O)(=O)Nc1cncc(C(=O)Oc2ccccc2)c1 [Example IV-5]
IC50: < 0.1 µM

Compound: O=C(OC1CCCCC1)c1cncc(NS(=O)(=O)c2cc(Br)ccc2OC(F)(F)F)c1 [Example XII-11]
IC50: < 0.1 µM

Compound: COc1ccc(OC)c(S(=O)(=O)Nc2cncc(-c3ccc(Br)cc3)c2)c1 [Example III-22]
IC50: 0.1 to 1 µM

Compound: CCCOC(=O)c1cncc(NS(=O)(=O)c2cc(Cl)ccc2OC)c1 [Example IV-8]
IC50: < 0.1 µM

Compound: COCCNC(=O)c1cncc(NS(=O)(=O)c2cc(Br)ccc2OC)c1 [Example IV-21]
IC50: 0.1 to 1 µM

Compound: CCCCN(c1cnc2ccccc2c1)S(=O)(=O)c1cc(OC)ccc1OC [Example VII-15]
IC50: > 1 µM

Compound: COCCNC(=O)c1ccc(OC)c(S(=O)(=O)Nc2cccnc2)c1 [Example I-21]
IC50: > 1 µM

Compound: COc1ccc(Br)cc1S(=O)(=O)Nc1ccsc1 [Example V-1]
IC50: > 1 µM

Compound: COc1ccc(Cl)cc1S(=O)(=O)Nc1cncc(C(=O)NC2CCCCC2)c1 [Example IV-30]
IC50: < 0.1 µM

Compound: CCCOC(=O)c1cncc(NS(=O)(=O)c2cc(OC(F)(F)F)ccc2OC)c1 [Example XII-16]
IC50: < 0.1 µM

Compound: COc1ccc(Cl)cc1S(=O)(=O)Nc1cncc(-c2nccs2)c1 [Example III-81]
IC50: < 0.1 µM

Compound: COC(=O)c1cncc(NS(=O)(=O)c2cc(Cl)ccc2OC(F)(F)F)c1 [Example XII-1]
IC50: 0.1 to 1 µM

Compound: COc1ccc(OC)c(S(=O)(=O)Nc2cncc(-c3ccc(O)cc3)c2)c1 [Example III-7]
IC50: < 0.1 µM

Compound: COCCCN(c1cnc2ccccc2c1)S(=O)(=O)c1cc(OC)ccc1OC [Example VII-18]
IC50: > 1 µM

====

pIC50: −log10 of the molar value.
Lab note: pIC50 readings collected with TNAP (Homo sapiens (Human)) for the following compounds.

Query smiles: COc1ccc(Br)cc1S(=O)(=O)Nc1cncc(C(=O)Nc2ccccc2)c1
pIC50: 6.00 to 7.00
--
Query smiles: CNC(=O)c1cncc(NS(=O)(=O)c2cc(OC(F)(F)F)ccc2OC)c1
pIC50: 6.00 to 7.00
--
Query smiles: COc1ccc(Br)cc1S(=O)(=O)Nc1cncc(-c2ccc(C(F)(F)F)cc2)c1
pIC50: 6.00 to 7.00
--
Query smiles: COc1ccc(Cl)cc1S(=O)(=O)Nc1cncc(-c2ccccn2)c1
pIC50: > 7.00

====

Let's look at some molecules and their measured IC50.
- Tested target: TNAP (Homo sapiens (Human))

Query smiles: COc1ccc(Br)cc1S(=O)(=O)Nc1cncc(-c2ccoc2)c1
IC50: < 100 nM
--
Query smiles: COc1ccc(-c2ccsc2)cc1S(=O)(=O)Nc1cccnc1
IC50: 100 to 1000 nM
--
Query smiles: Cc1ccc(OC(F)(F)F)cc1S(=O)(=O)Nc1cnc2ccccc2c1
IC50: > 1000 nM
--
Query smiles: O=S(=O)(Nc1cncc(-c2cscn2)c1)c1cc(Cl)ccc1OC(F)(F)F
IC50: < 100 nM
--
Query smiles: COc1ccc(Br)cc1S(=O)(=O)Nc1cncc(-c2cscn2)c1
IC50: < 100 nM
--
Query smiles: COc1ccc(Br)cc1S(=O)(=O)Nc1cncc(-c2cnccn2)c1
IC50: < 100 nM
--
Query smiles: O=S(=O)(Nc1cncc(-c2ccccn2)c1)c1cc(Br)ccc1OC(F)(F)F
IC50: 100 to 1000 nM
--
Query smiles: O=S(=O)(Nc1cncc(-c2ccc(OC(F)(F)F)cc2)c1)c1cc(Cl)ccc1OC(F)(F)F
IC50: 100 to 1000 nM
--
Query smiles: COC(=O)c1cncc(NS(=O)(=O)c2cc(OC)ccc2OC)c1
IC50: < 100 nM

====

- Tested target: TNAP (Homo sapiens (Human))
pIC50: −log10 of the molar value.
Known pIC50 of a selection of compounds
Property: pIC50

Compound: COc1ccc(OC(F)(F)F)cc1S(=O)(=O)Nc1cncc(-c2cncs2)c1 [Example XI-27]
Tested target: TNAP (Homo sapiens (Human))
Property: pIC50
Data value: 6.00 to 7.00
//
Compound: COc1ccc(OC)c(S(=O)(=O)Nc2cnc3ccc(C(N)=O)cc3c2)c1 [Example IX-10]
Tested target: TNAP (Homo sapiens (Human))
Property: pIC50
Data value: 6.00 to 7.00
//
Compound: COc1ccc(Br)cc1S(=O)(=O)Nc1cncc(C(=O)N2CCN(C)CC2)c1 [Example IV-25]
Tested target: TNAP (Homo sapiens (Human))
Property: pIC50
Data value: 6.00 to 7.00
//
Compound: COc1ccc(Cl)cc1S(=O)(=O)Nc1cncc(-c2ccc(O)cc2)c1
Tested target: TNAP (Homo sapiens (Human))
Property: pIC50
Data value: > 7.00
//
Compound: COc1ccc(OC)c(S(=O)(=O)Nc2cccnn2)c1 [Example V-25]
Tested target: TNAP (Homo sapiens (Human))
Property: pIC50
Data value: < 6.00
//
Compound: COc1ccc(C(=O)N2CCN(C)CC2)cc1S(=O)(=O)Nc1cnc2ccccc2c1 [Example II-22]
Tested target: TNAP (Homo sapiens (Human))
Property: pIC50
Data value: < 6.00
//
Compound: COc1ccc(Br)cc1S(=O)(=O)Nc1nnc(C(F)(F)F)s1 [Example V-19]
Tested target: TNAP (Homo sapiens (Human))
Property: pIC50
Data value: 6.00 to 7.00
//
Compound: COc1ccc(Br)cc1S(=O)(=O)Nc1nnc(C)o1 [Example V-21]
Tested target: TNAP (Homo sapiens (Human))
Property: pIC50
Data value: < 6.00
//
Compound: COc1ccc(OC)c(S(=O)(=O)Nc2cncc(C(=O)Oc3ccccc3)c2)c1 [Example IV-15]
Tested target: TNAP (Homo sapiens (Human))
Property: pIC50
Data value: > 7.00
//
Compound: COc1ccc(OC)c(S(=O)(=O)Nc2nnc(C(F)(F)F)s2)c1 [Example V-20]
Tested target: TNAP (Homo sapiens (Human))
Property: pIC50
Data value: < 6.00
//
Compound: COc1ccc(OC)c(S(=O)(=O)Nc2cnccn2)c1 [Example V-23]
Tested target: TNAP (Homo sapiens (Human))
Property: pIC50
Data value: < 6.00
//
Compound: COc1ccc(Br)cc1S(=O)(=O)Nc1ccc(N(C)C)nc1 [Example VIII-7]
Tested target: TNAP (Homo sapiens (Human))
Property: pIC50
Data value: < 6.00
//
Compound: COc1ccc(OC)c(S(=O)(=O)Nc2ncco2)c1 [Example V-4]
Tested target: TNAP (Homo sapiens (Human))
Property: pIC50
Data value: < 6.00
//
Compound: CCCNC(=O)c1cncc(NS(=O)(=O)c2cc(Cl)ccc2OC)c1 [Example IV-29]
Tested target: TNAP (Homo sapiens (Human))
Property: pIC50
Data value: > 7.00
//
Compound: COc1ccc(Br)cc1S(=O)(=O)Nc1ccc(N2CCOCC2)nc1 [Example VIII-1]
Tested target: TNAP (Homo sapiens (Human))
Property: pIC50
Data value: < 6.00
//
Compound: O=C(Oc1ccccc1)c1cncc(NS(=O)(=O)c2cc(Br)ccc2OC(F)(F)F)c1 [Example XII-12]
Tested target: TNAP (Homo sapiens (Human))
Property: pIC50
Data value: > 7.00
//
Compound: O=S(=O)(Nc1cncc(-c2cccs2)c1)c1cc(Cl)ccc1OC(F)(F)F [Example XI-14]
Tested target: TNAP (Homo sapiens (Human))
Property: pIC50
Data value: 6.00 to 7.00
//
Compound: COCCNC(=O)c1cncc(NS(=O)(=O)c2cc(Cl)ccc2OC)c1 [Example IV-32]
Tested target: TNAP (Homo sapiens (Human))
Property: pIC50
Data value: 6.00 to 7.00
//
Compound: COc1ccc(OC(F)(F)F)cc1S(=O)(=O)Nc1cncc(-c2ccccn2)c1 [Example XI-19]
Tested target: TNAP (Homo sapiens (Human))
Property: pIC50
Data value: 6.00 to 7.00
//
Compound: O=C(NC1CCCCC1)c1cncc(NS(=O)(=O)c2cc(Cl)ccc2OC(F)(F)F)c1 [Example XII-8]
Tested target: TNAP (Homo sapiens (Human))
Property: pIC50
Data value: 6.00 to 7.00
//
Compound: CNC(=O)c1ccc2ncc(NS(=O)(=O)c3cc(OC)ccc3OC)cc2c1 [Example IX-11]
Tested target: TNAP (Homo sapiens (Human))
Property: pIC50
Data value: 6.00 to 7.00
//
Compound: COc1ccccc1-c1cncc(NS(=O)(=O)c2cc(Br)ccc2OC)c1 [Example III-35]
Tested target: TNAP (Homo sapiens (Human))
Property: pIC50
Data value: > 7.00
//
Compound: COc1ccc(OC)c(S(=O)(=O)Nc2cnc3ccc(C(=O)NC4CC4)cc3c2)c1 [Example IX-13]
Tested target: TNAP (Homo sapiens (Human))
Property: pIC50
Data value: 6.00 to 7.00
//
Compound: COCCNC(=O)c1ccc(OC)c(S(=O)(=O)Nc2cnc3ccccc3c2)c1 [Example II-20]
Tested target: TNAP (Homo sapiens (Human))
Property: pIC50
Data value: 6.00 to 7.00
//
Compound: CCNC(=O)c1cncc(NS(=O)(=O)c2cc(Br)ccc2OC)c1 [Example IV-18]
Tested target: TNAP (Homo sapiens (Human))
Property: pIC50
Data value: 6.00 to 7.00
//
Compound: COc1ccc(Br)cc1S(=O)(=O)Nc1cncc(-c2ccc(Br)cc2)c1 [Example III-23]
Tested target: TNAP (Homo sapiens (Human))
Property: pIC50
Data value: 6.00 to 7.00
//
Compound: O=S(=O)(Nc1cncc(-c2ccccn2)c1)c1cc(Cl)ccc1OC(F)(F)F [Example XI-17]
Tested target: TNAP (Homo sapiens (Human))
Property: pIC50
Data value: 6.00 to 7.00
//
Compound: COc1ccc(OC)c(S(=O)(=O)Nc2ccnn2C)c1 [Example V-12]
Tested target: TNAP (Homo sapiens (Human))
Property: pIC50
Data value: < 6.00
//
Compound: COc1ccc(Br)cc1S(=O)(=O)Nc1cncc(-c2ccccc2C)c1 [Example III-38]
Tested target: TNAP (Homo sapiens (Human))
Property: pIC50
Data value: 6.00 to 7.00
//
Compound: COc1ccc(OC)c(S(=O)(=O)Nc2cnc3ccc(C(=O)O)cc3c2)c1 [Example IX-9]
Tested target: TNAP (Homo sapiens (Human))
Property: pIC50
Data value: < 6.00
//
Compound: O=S(=O)(Nc1cncc(-c2cccs2)c1)c1cc(Br)ccc1OC(F)(F)F [Example XI-15]
Tested target: TNAP (Homo sapiens (Human))
Property: pIC50
Data value: 6.00 to 7.00
//
Compound: NC(=O)c1cncc(NS(=O)(=O)c2cc(Br)ccc2OC(F)(F)F)c1 [Example XII-13]
Tested target: TNAP (Homo sapiens (Human))
Property: pIC50
Data value: > 7.00
//
Compound: O=C(O)c1cncc(NS(=O)(=O)c2cc(Cl)ccc2OC(F)(F)F)c1
Tested target: TNAP (Homo sapiens (Human))
Property: pIC50
Data value: 6.00 to 7.00
//
Compound: Cc1ccc(OC(F)(F)F)c(S(=O)(=O)Nc2cnc3ccccc3c2)c1 [Example X-4]
Tested target: TNAP (Homo sapiens (Human))
Property: pIC50
Data value: > 7.00
//
Compound: COc1cccc(-c2cncc(NS(=O)(=O)c3cc(Cl)ccc3OC)c2)c1 [Example III-48]
Tested target: TNAP (Homo sapiens (Human))
Property: pIC50
Data value: > 7.00
//
Compound: COc1ccc(Br)cc1S(=O)(=O)Nc1cncc(-c2cncs2)c1 [Example III-83]
Tested target: TNAP (Homo sapiens (Human))
Property: pIC50
Data value: > 7.00

Numbers sourced from patent US10370333B2.
